# Tested on: A549 non-small-cell human lung carcinoma
# TEST DESCRIPTION: In vitro antiproliferative activity (Microculture Tetrazolium Assay) on A549
# Type: cell-based
# CONDITION LABEL: A549 cells; read-out: IC50, the concentration of cytotoxic agent that inhibits the proliferation of the treated cells by 50%
MEASURED METRIC: pIC50
Reminder that pIC50 is minus the log10 of a molar concentration.

May I ask what pIC50 has been recorded for Cn1c(=O)c2c3[nH]c4ccccc4c3c3c(=O)n(C)c(=O)c3c2c1=O [Example 2] ?
5.33

====

# Test system: DU145 prostate carcinoma
# TEST DESCRIPTION: In vitro antiproliferative activity (Microculture Tetrazolium Assay) on DU145
# Format: cell-based
# CONDITION LABEL: DU 145 cells; read-out: IC50, the concentration of cytotoxic agent that inhibits the proliferation of the treated cells by 50%
MEASURED METRIC: IC50
Number first, unit second.

May I ask what IC50 has been recorded for Cn1c(=O)c2c3[nH]c4ccccc4c3c3c(=O)n(C)c(=O)c3c2c1=O [Example 2] ?
5.4 µM
